# measurement-notes: Intrinsic Clearance
# condition-label: mouse liver microsomes
quantity-name: CL int

[[record]]
molecule = "COC(=O)[C@H](C)[C@@H]1N=C(c2ccc(Cl)cc2)c2ccc(OC)cc2-n2c(C)nnc21 (racemic) [Compound 7]"
quantity_name = "CL int"
experimental_value = "<0.5 ml min^–1 g^–1"

[[record]]
molecule = "COC(=O)CC1N=C(c2ccc(Cl)cc2)c2cc(OC)ccc2-n2c(C)nnc21 (stereo not drawn) [Compound 1]"
quantity_name = "CL int"
experimental_value = "<0.5 ml min^–1 g^–1"

[[record]]
molecule = "CC[C@@H](C(=O)N(CC)CC)[C@@H]1N=C(c2ccc(Cl)cc2)c2cc(OC)ccc2-n2c(C)nnc21 (relative stereo) [Compound 20]"
quantity_name = "CL int"
experimental_value = ">50 ml min^–1 g^–1"


* * *

# assay-system: BRD2 BD2 WT (Homo sapiens, UniProt P25440)
# Sequence (P25440 344-455): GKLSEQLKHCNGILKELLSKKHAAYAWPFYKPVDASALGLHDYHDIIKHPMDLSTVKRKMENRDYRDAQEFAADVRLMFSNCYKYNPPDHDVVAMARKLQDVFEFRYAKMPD
# measurement-notes: ITC
# Format: binding
quantity-name: Kd

[[record]]
molecule = "COC(=O)[C@H](C)[C@@H]1N=C(c2ccc(Cl)cc2)c2ccc(OC)cc2-n2c(C)nnc21 [(2R,3S)-7]"
assay_system = "BRD2 BD2 WT (Homo sapiens, UniProt P25440)"
experimental_value = "> 60 µM"

[[record]]
molecule = "CC[C@@H](C(=O)OC)[C@@H]1N=C(c2ccc(Cl)cc2)c2ccc(OC)cc2-n2c(C)nnc21 (racemic)"
assay_system = "BRD2 BD2 WT (Homo sapiens, UniProt P25440)"
experimental_value = "> 60 µM"

[[record]]
molecule = "COC(=O)[C@H](C)[C@@H]1N=C(c2ccc(Cl)cc2)c2ccc(OC)cc2-n2c(C)nnc21 (racemic) [Compound 7]"
assay_system = "BRD2 BD2 WT (Homo sapiens, UniProt P25440)"
experimental_value = "> 60 µM"


* * *

The following compounds are listed with their measured IC50 values.
# assay-system: BRD4 BD2 WT (Homo sapiens, UniProt O60885)
# measurement-notes: competitive AlphaLISA
# Type: binding
quantity-name: IC50 (µM)

[[record]]
compound = "CCNC(=O)[C@H](CC)[C@@H]1N=C(c2ccc(Cl)cc2)c2ccc(OC)cc2-n2c(C)nnc21 (relative stereo)"
assay_system = "BRD4 BD2 WT (Homo sapiens, UniProt O60885)"
relational_operator = ">"
experimental_value = 100

[[record]]
compound = "C=CC[C@@H](C(=O)OC(C)(C)C)[C@@H]1N=C(c2ccc(Cl)cc2)c2cc(OC)ccc2-n2c(C)nnc21"
assay_system = "BRD4 BD2 WT (Homo sapiens, UniProt O60885)"
relational_operator = "="
experimental_value = 3.98

[[record]]
compound = "COC(=O)CC1N=C(c2ccc(Cl)cc2)c2ccc(OC)cc2-n2c(C)nnc21 (stereo not shown)"
assay_system = "BRD4 BD2 WT (Homo sapiens, UniProt O60885)"
relational_operator = "="
experimental_value = 2.51

[[record]]
compound = "C=CC[C@@H](C(=O)OC)[C@@H]1N=C(c2ccc(Cl)cc2)c2cc(OC)ccc2-n2c(C)nnc21 (racemic)"
assay_system = "BRD4 BD2 WT (Homo sapiens, UniProt O60885)"
relational_operator = "="
experimental_value = 10


* * *

# assay-system: BRD2 BD2 WT (Homo sapiens)
# measurement-notes: competitive AlphaLISA
# Format: binding
Measured IC50, listed per entry.
quantity-name: IC50 (µM)

[[record]]
molecule = "COC(=O)[C@H](C)[C@@H]1N=C(c2ccc(Cl)cc2)c2ccc(OC)cc2-n2c(C)nnc21 (racemic)"
quantity_name = "IC50"
experimental_value = 7.94

[[record]]
molecule = "C=CC[C@@H](C(=O)OC(C)(C)C)[C@@H]1N=C(c2ccc(Cl)cc2)c2cc(OC)ccc2-n2c(C)nnc21"
quantity_name = "IC50"
experimental_value = 7.94

[[record]]
molecule = "C=CC[C@@H](C(=O)OC)[C@@H]1N=C(c2ccc(Cl)cc2)c2cc(OC)ccc2-n2c(C)nnc21 (racemic)"
quantity_name = "IC50"
experimental_value = 10

[[record]]
molecule = "CC[C@@H](C(=O)OC)[C@@H]1N=C(c2ccc(Cl)cc2)c2cc(OC)ccc2-n2c(C)nnc21 (relative stereo)"
quantity_name = "IC50"
experimental_value = 10

[[record]]
molecule = "COC(=O)[C@H](C)[C@@H]1N=C(c2ccc(Cl)cc2)c2cc(OC)ccc2-n2c(C)nnc21 (relative stereo)"
quantity_name = "IC50"
experimental_value = 1

[[record]]
molecule = "CC[C@@H](C(=O)OC(C)(C)C)[C@@H]1N=C(c2ccc(Cl)cc2)c2ccc(OC)cc2-n2c(C)nnc21"
quantity_name = "IC50"
experimental_value = 20

[[record]]
molecule = "CC[C@@H](C(=O)OC)[C@@H]1N=C(c2ccc(Cl)cc2)c2ccc(OC)cc2-n2c(C)nnc21 (racemic)"
quantity_name = "IC50"
experimental_value = 3.98

